experiment: In vitro cell permeability / P-gp substrate assay; conditions: LLC-PK1, Papp AB, LLC-MDR1, apical to basolateral, no inhibitor
RECORDED METRIC: Papp A→B
Kindly write the number and append the unit.

Give the measured Papp A→B of CSCC[C@@H]1NC(=O)CNC(=O)CNC(=O)[C@H](C)NC(=O)[C@H](C(C)C)NC(=O)CNC(=O)[C@H](CC(C)C)NC(=O)[C@@H]2CCCN2C(=O)[C@H](CC(=O)O)NC(=O)[C@H](CCC(=O)O)NC(=O)[C@H](Cc2ccc(O)cc2)NC(=O)[C@H](CC(C)C)NC(=O)[C@H](CO)NC(=O)[C@H](C(C)C)NC(=O)[C@H]2CCCN2C(=O)[C@@H]2CCCN2C(=O)[C@H](Cc2ccc(O)cc2)NC(=O)[C@H](C(C)C)NC(=O)CNC1=O .
2.1 nm/s

====

Let's look at some compounds and their measured pIC50.
test system: H1/NCa HA (A/New Caledonia/20/1999 (H1N1)); type: binding, influenza A virus
Scale note: pIC50 = -log10(concentration in M).

Recorded pIC50, per entry:
CSCC[C@@H]1NC(=O)CNC(=O)CNC(=O)[C@H](C)NC(=O)[C@H](C(C)C)NC(=O)CNC(=O)[C@H](CC(C)C)NC(=O)[C@@H]2CCCN2C(=O)[C@H](CC(=O)O)NC(=O)[C@H](CCC(=O)O)NC(=O)[C@H](Cc2ccc(O)cc2)NC(=O)[C@H](CC(C)C)NC(=O)[C@H]2CCCN2C(=O)CNC(=O)CNC1=O    5.83
CSCC[C@@H]1NC(=O)CNC(=O)CNC(=O)[C@H](C)NC(=O)[C@H](C(C)C)NC(=O)CNC(=O)[C@H](CC(C)C)NC(=O)[C@@H]2CCCN2C(=O)[C@H](CC(=O)O)NC(=O)[C@H](CCCNC(=N)N)NC(=O)[C@H](Cc2ccc(O)cc2)NC(=O)[C@H](CC(C)C)NC(=O)[C@@H](NC(=O)CCC(=O)O)CSSC[C@@H](C(N)=O)NC(=O)CNC1=O    6.80

// next entry
Please tell me: pIC50 of CSCC[C@@H]1NC(=O)CNC(=O)CNC(=O)[C@H](C)NC(=O)[C@H](C(C)C)NC(=O)CNC(=O)[C@H](CC(C)C)NC(=O)[C@@H]2CCCN2C(=O)[C@H](CC(=O)O)NC(=O)[C@H](CCC(=O)O)NC(=O)[C@H](Cc2ccc(O)cc2)NC(=O)[C@H](CC(C)C)NC(=O)[C@H](CO)NC(=O)[C@H](C(C)C)NC(=O)[C@H]2CCCN2C(=O)[C@@H]2CCCN2C(=O)[C@H](Cc2ccc(O)cc2)NC(=O)[C@H](C(C)C)NC(=O)CNC1=O , system H1/NCa HA (A/New Caledonia/20/1999 (H1N1))?
7.28

====

assay: In vitro cell permeability assay; conditions: LLC-PK1, Efflux ratio BA/AB, LLC-Parent, no inhibitor
RECORDED METRIC: efflux ratio

For the compound shown here, CSCC[C@@H]1NC(=O)CNC(=O)CNC(=O)[C@H](C)NC(=O)[C@H](C(C)C)NC(=O)CNC(=O)[C@H](CC(C)C)NC(=O)[C@@H]2CCCN2C(=O)[C@H](CC(=O)O)NC(=O)[C@H](CCC(=O)O)NC(=O)[C@H](Cc2ccc(O)cc2)NC(=O)[C@H](CC(C)C)NC(=O)[C@H](CO)NC(=O)[C@H](C(C)C)NC(=O)[C@H]2CCCN2C(=O)[C@@H]2CCCN2C(=O)[C@H](Cc2ccc(O)cc2)NC(=O)[C@H](C(C)C)NC(=O)CNC1=O [CP1] , give the reported efflux ratio.
2.55

The reported measurements were obtained from paper PMC12714728.
